The reported measurements were obtained from PubChem BioAssay (NCI).

Would you kindly list growth for each of these compounds?
# Tested on: PC-3 prostate
# PROTOCOL_SUMMARY: NCI-60 one-dose screen, 48 h (100 = growth as untreated, 0 = no growth, -100 = all killed)
# RUN_PARAMETERS: 10 µM unless noted
This is part of a sample that, as a whole, favours compounds with a hit. Of some 83,000 tested, about 20% had one in any assay.
Answers are plain numbers, in %.

Observe how each entry below is paired with its result.
| COMPOUND | MEASURED_PARAMETER | REPORTED_MEASUREMENT |
| --- | --- | --- |
| C=C(C)[C@@H]1CC[C@]2(COC(C)=O)CC[C@]3(C)[C@H](CC[C@@H]4[C@@]5(C)CCCN(C(C)=O)C(C)(C)[C@@H]5CC[C@]43C)[C@@H]12 | growth | 65.6 |
| CCN1C(=O)N(CC)C2Nn3c(s/c(=C\c4ccccc4Br)c3=O)=NC21 (centres undefined) | growth | 32.1 |

Field: growth. Fill in for each record below.
1. C[C@]1(O)CC(=O)[C@]2(O)C3=C(C=C[C@]2(O)C1)C(=O)c1c(O)cccc1C3=O
2. CN(CCCNC(=O)Cc1ccc2ccc3cccc4ccc1c2c34)CCCNc1cc(-c2ccc3ccccc3c2)nc2ccccc12

Solution:
1: 72.8; 2: -87.5
